subject.of.test: EGFR (d746-750 C797S) (Homo sapiens, UniProt P00533, C797S/DEL746-750)
Construct: purchased signalchem
Sequence (P00533 with tags, fused parts or gaps DEL746-750/C797S limits assumed): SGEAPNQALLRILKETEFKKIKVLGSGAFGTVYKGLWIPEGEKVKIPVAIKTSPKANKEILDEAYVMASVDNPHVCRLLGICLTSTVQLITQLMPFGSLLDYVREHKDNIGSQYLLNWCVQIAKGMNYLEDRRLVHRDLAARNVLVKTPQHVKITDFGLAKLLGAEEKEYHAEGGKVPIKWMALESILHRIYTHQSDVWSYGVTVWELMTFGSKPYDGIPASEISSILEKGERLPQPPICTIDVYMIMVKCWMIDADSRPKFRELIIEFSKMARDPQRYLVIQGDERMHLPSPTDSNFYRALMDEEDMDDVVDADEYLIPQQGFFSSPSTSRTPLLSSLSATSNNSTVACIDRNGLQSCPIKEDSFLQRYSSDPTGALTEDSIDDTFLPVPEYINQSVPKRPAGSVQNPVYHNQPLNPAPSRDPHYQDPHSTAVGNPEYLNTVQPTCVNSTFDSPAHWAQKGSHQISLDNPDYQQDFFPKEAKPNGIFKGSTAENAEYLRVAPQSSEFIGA
test: Inhibition of EGFR (d746-750 C797S) biochemical enzymatic activity (HTRF)
experimental.conditions: EGFR Del19-C797S, 1 mM ATP, 1 h, room temperature, read-out: IC50 (nM) @Del19-C797S
Experimental: Biological Example 1: Inhibition of EGFR WT and Mutant Biochemical Enzymatic Activity The inhibition potency of compounds against these enzymes was assessed using Homogenous Time Resolved Fluorescence approach (HTRF, CisBio. Cat No. 62TKOPEJ). Inhibitory effects of the compounds were determined by measuring the enzymatic activity of EGFR enzyme phosphorylates 1 μM TK Substrate-biotin in the presence of 1 mM adenosine-5′-triphosphate (ATP) and varying concentrations of the test compound. […]
measurement.label: IC50 (nM)

CN1C2CC1CN(c1ccc3nc4n(c3c1)C13CCC(CN(CCOc5c(cnn5C)-c5cc(cn(C)c5=O)C(=O)N4)C1)C3)C2 (single isomer, unassigned) [Example A98A]    391

1 = C[C@@H]1CCCOc2c(cnn2C)-c2cc(cn(C)c2=O)C(=O)Nc2nc3ccc(N4CC5(CCN(C)CC5)C4)cc3n2C1 [Example A41]
2 = CN(C)C1CN(c2ccc3nc4n(c3c2)C23CCC(CN(CCOc5c(cnn5C)-c5cc(cn(C)c5=O)C(=O)N4)C2)C3)C1 (single isomer, unassigned) [Example A65B]
Between the entries labeled 1 and 2 , whose measured IC50 is lower? Refer to your chosen item by its label in the answer.
2
(2: 0.97 nM, 1: 1.7 nM)

====

subject.of.test: EGFR[T790M/C797S/d746-750] (Homo sapiens, UniProt P00533, C797S/DEL746-750/T790M)
Construct: purchased Carna Bio
Sequence (P00533 with tags, fused parts or gaps DEL746-750/T790M/C797S limits assumed): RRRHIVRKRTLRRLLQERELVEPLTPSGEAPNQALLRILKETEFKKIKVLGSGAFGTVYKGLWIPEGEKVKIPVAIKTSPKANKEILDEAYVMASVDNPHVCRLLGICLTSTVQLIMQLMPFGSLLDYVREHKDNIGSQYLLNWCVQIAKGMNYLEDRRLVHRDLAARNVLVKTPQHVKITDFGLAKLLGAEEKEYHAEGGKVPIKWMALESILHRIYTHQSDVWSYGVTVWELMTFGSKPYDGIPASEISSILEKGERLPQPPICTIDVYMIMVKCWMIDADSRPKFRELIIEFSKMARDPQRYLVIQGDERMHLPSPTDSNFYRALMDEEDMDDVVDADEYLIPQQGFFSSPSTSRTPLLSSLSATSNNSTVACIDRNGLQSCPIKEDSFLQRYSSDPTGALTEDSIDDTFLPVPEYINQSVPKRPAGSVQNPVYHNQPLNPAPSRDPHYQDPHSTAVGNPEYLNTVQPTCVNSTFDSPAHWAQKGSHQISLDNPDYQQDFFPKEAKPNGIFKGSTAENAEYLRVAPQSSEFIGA
test: Inhibition of EGFR[T790M/C797S/d746-750] biochemical enzymatic activity (HTRF)
experimental.conditions: EGFR T790M-C797S-Del19, 1 mM ATP, 1 h, room temperature, read-out: IC50 (nM) @T790M - C797S - Del19
measurement.label: IC50 (nM)

C[C@@H]1CCCOc2c(cnn2C)-c2cc(cn(C)c2=O)C(=O)Nc2nc3ccc(N4CC5(CCN(C)CC5)C4)cc3n2C1 [Example A41]    3.1

P = CN(C)C1CN(c2ccc3nc4n(c3c2)C23CCC(CN(CCOc5c(cnn5C)-c5cc(cn(C)c5=O)C(=O)N4)C2)C3)CC1F (single isomer, unassigned) [Example A84C]
Q = C[C@@H]1CCCOc2c(cnn2C)-c2cc(cn(C)c2=O)C(=O)Nc2nc3ccc(N4CCN(C(=O)OC(C)(C)C)CC4)cc3n2C1 [Example A54]
Hi, I'm comparing P with Q and wondering which one has the bigger number for IC50. Any idea? Refer to your chosen item by its label in the answer.
Q
(Q: 31 nM, P: 2.5 nM)

====

subject.of.test: EGFR[T790M/C797S/d746-750] (Homo sapiens, UniProt P00533, C797S/DEL746-750/T790M)
Construct: purchased Carna Bio
test: Inhibition of EGFR[T790M/C797S/d746-750] biochemical enzymatic activity (HTRF)
experimental.conditions: EGFR T790M-C797S-Del19, 1 mM ATP, 1 h, room temperature, read-out: IC50 (nM) @T790M - C797S - Del19
Procedure: Biological Example 1: Inhibition of EGFR WT and Mutant Biochemical Enzymatic Activity The inhibition potency of compounds against these enzymes was assessed using Homogenous Time Resolved Fluorescence approach (HTRF, CisBio. Cat No. 62TKOPEJ). Inhibitory effects of the compounds were determined by measuring the enzymatic activity of EGFR enzyme phosphorylates 1 μM TK Substrate-biotin in the presence of 1 mM adenosine-5′-triphosphate (ATP) and varying concentrations of the test compound. […]
measurement.label: IC50 (nM)

Record excerpt, results attached:
CCN1CCN(c2ccc3nc4n(c3c2)C[C@H](C)CCCOc2c(cnn2C)-c2cc(cn(C)c2=O)C(=O)N4)CC1    4.9
Cc1cc2cc(n1)-c1cnn(C)c1OCCN(CC(F)F)CCn1c(nc3ccccc31)NC2=O    4.1
CN1CC2CC1CN2c1ccc2nc3n(c2c1)C12CCC(CN(CCOc4c(cnn4C)-c4cc(cn(C)c4=O)C(=O)N3)C1)C2 (single isomer, unassigned) [Example A105B]    1.7
Cn1ncc2c1OCCN1CC3CCC(C3)(C1)n1c(nc3ccc(N4CCC(N5CC(F)C5)CC4)cc31)NC(=O)c1cc-2c(=O)n(C)c1 (single isomer, unassigned) [Example A87A]    4000
C[C@@H]1CCCOc2c(cnn2C)-c2cc(cn(C)c2=O)C(=O)Nc2nc3ccc(N4CCN(C)CC4)cc3n2C1    1.6

P = CN1CCC2(CC1)CCN(c1ccc3nc4n(c3c1)C13CCC(CC1)CN(CCOc1c(cnn1C)-c1cc(cn(C)c1=O)C(=O)N4)C3)C2
Q = CC(C)N1CCN(c2ccc3nc4n(c3c2)C[C@H](C)CCCOc2c(cnn2C)-c2cc(cn(C)c2=O)C(=O)N4)CC1
R = CN1CCN(C2CN(c3ccc4nc5n(c4c3)C34CCC(CN(CCOc6c(cnn6C)-c6cc(cn(C)c6=O)C(=O)N5)C3)C4)C2)CC1 (single isomer, unassigned) [Example A70B]
Descending sort on IC50 required. Field: ranking. Enter the labels in the order requested.
P, Q, R
(P: 11 nM, Q: 4 nM, R: 2.1 nM)

1 = CN(C)C1CCN(c2ccc3nc4n(c3c2)C23CCC(CC2)CN(CCOc2c(cnn2C)-c2cc(cn(C)c2=O)C(=O)N4)C3)CC1
2 = Cc1cc2cc(n1)-c1cnn(C)c1OCCN1CC3CCC(CC3)(C1)n1c(nc3ccccc31)NC2=O
3 = C[C@@H]1CCCOc2c(cnn2C)-c2cc(cn(C)c2=O)C(=O)Nc2nc3ccc(N4CCN(C5COC5)CC4)cc3n2C1
Sort low-to-high on IC50, please. Field: ranking. Enter the labels in the order requested.
1, 3, 2
(1: 3 nM, 3: 5.1 nM, 2: 13 nM)
